Below, each entry is listed with its recorded log10 of EC50.
# system.tested: Gal4 DNA binding domain fused to the LBD of LXRα in HEK293 cells (Homo sapiens (Human))
# Sequence (Q13133 209-447): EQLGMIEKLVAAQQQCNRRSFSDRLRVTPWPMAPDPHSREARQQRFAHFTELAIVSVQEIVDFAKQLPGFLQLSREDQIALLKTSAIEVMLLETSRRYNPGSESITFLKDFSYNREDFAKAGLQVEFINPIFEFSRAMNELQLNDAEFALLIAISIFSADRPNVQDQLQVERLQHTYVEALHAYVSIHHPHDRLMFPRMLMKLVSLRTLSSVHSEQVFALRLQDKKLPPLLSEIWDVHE
# test.summary: LXR luciferase transcriptional reporter gene assay, agonist mode, LXRα
# Assay type: cell-based
# measurement.parameters: agonist mode; read-out: Cell LXRα EC50
Values are log10 of EC50 in µM.

>>> result_number("CS(=O)(=O)c1cc(F)cc(N2CCN(Cc3ccc(C(F)(F)F)nc3)C(c3ccccc3)C2)c1 (stereo not shown) [46-53]")
1.05

Specify reported log10 of EC50 for the compound shown: CCOC(=O)c1cnc(N2CCN(c3ccc(F)c(S(C)(=O)=O)c3)C[C@H]2CC(C)C)nc1C(F)(F)F [9-7] -0.02

Specify reported log10 of EC50 for the compound shown: CC(C)[C@@H]1CN(c2ccc(CO)c(S(C)(=O)=O)c2)CCN1c1ncc(C(C)(C)C#N)c(C(F)(F)F)n1 [Cpd No 25-1] -0.76

Specify reported log10 of EC50 for the compound shown: CC(C)[C@@H]1CN(c2ccc(C#N)c(S(C)(=O)=O)c2)CCN1C(=O)OC(C)(C)C [Cpd No 3-1] 1.11

Specify reported log10 of EC50 for the compound shown: Cc1cc(C)nc(N2CCN(c3cccc(S(C)(=O)=O)c3)C[C@H]2C(C)C)n1 [Cpd No 7-3] 0.90
